Source: paper PMC10206040

Task for the reader: assign each of the following compounds its reported THP-1 TC50 ± Standard Deviation.
tested on: THP-1; assay: Cytotoxicity assay in THP-1 (MTT); type: cell-based; conditions: Table S2, 72 h, maximal concentration 50 μM

Some solved cases for reference:
• CCOc1cc(-c2ccnc(N)n2)cc2c1c(N)nn2C = > 50
• CNc1nccc(-c2cc3c4c(n[nH]c4c2)Nc2ccccc2O3)n1 = 5.0 ± 0.11
• Cn1cc(-c2cnc3[nH]cc(-c4cncc(C#N)c4)c3c2)cn1 = > 50
• O=C(N[C@H](CO)c1ccccc1)c1ccc(-c2c[nH]c3ncccc23)nc1 = 26 ± 2.0
• Cn1cc(Nc2nc(NCCCC(F)(F)F)c3nc[nH]c3n2)cn1 = > 50
• CN(C)Cc1ccc(-c2cc3c(-c4cnn(C)c4)ccnc3[nH]2)cc1 = < 0.62
• O=C(N[C@H](CO)c1ccccc1)c1cc(-c2c[nH]c3ncccc23)[nH]n1 = 42 ± 11
• N#Cc1cccc(-c2n[nH]c3ncc(-c4cnn(C5CCOCC5)c4)cc23)c1 = > 50
• FC1(F)CCN(c2nc(Nc3ccsc3)nc3[nH]cnc23)CC1 = > 50
• c1cc(-c2c[nH]c3ncc(-c4cnn(C5CCOCC5)c4)cc23)ccn1 = 5.8 ± 0.43

Hi there! I need THP-1 TC50 ± Standard Deviation for each item below, if you can.
1. Nc1ccnc(-c2cc3c4c(n[nH]c4c2)Nc2ccccc2O3)n1
2. Cn1nc2c3c(cc(-c4ccnc(N)n4)cc31)Oc1ccccc1N2
3. Cn1cc(Nc2nc(N3CCOCC3)c3nc[nH]c3n2)cn1
4. O=C1OCc2ccc(Nc3nccc(Nc4cccc5c4C(=O)NC5)n3)cc21
5. Cn1cc(Nc2nc(NCC(F)(F)F)c3nc[nH]c3n2)cn1

Reply |
1: > 50; 2: > 50; 3: 19 ± 0.52; 4: > 50; 5: > 50

Hi there! I need THP-1 TC50 ± Standard Deviation for each item below, if you can.
1. CN(C)S(=O)(=O)c1ccc(N/N=C2\C(=O)Nc3ccccc32)cc1
2. Cc1c(-c2cnn(C3CCOCC3)c2)cnc2[nH]cc(-c3cccc(C#N)c3)c12
3. Fc1ccc(Nc2nc(NCC(F)(F)F)c3nc[nH]c3n2)cc1

Reply |
["> 50", "> 50", "> 50"]

----------
test system: Naegleria fowleri (ATCC 30215) trophozoites; test: microbe, parasite or virus in culture; details: read-out: Naegleria fowleri EC50 ± SD; logarithmic trophozoites, 72 h, n = 3
Quantity Name: pEC50
Answers are plain numbers, as −log10 of the molar value.

- Nc1ccnc(-c2cc3c4c(n[nH]c4c2)Nc2ccccc2O3)n1 [Compound 1a]: 5.07
- Cn1cc(-c2cnc3[nH]cc(-c4cccnc4)c3c2)cn1 [Compound 4d]: 5.08

Please find the next compound below.
Ask | Provide the documented pEC50 with Naegleria fowleri (ATCC 30215) trophozoites as the system for OC1CCC(Nc2nccc(-c3cnn4nc(N5CCOCC5)ccc34)n2)CC1 (stereo not shown) [Compound 2k]
Reply | 5.12

----------
test system: Acanthamoeba castellanii T4 isolate (ATCC 50370) trophozoites; assay: CellTiter-Glo 2.0 trophocidal assay, A. castellanii; format: cell-based; settings: logarithmic trophozoites, 72 h, n = 3; read-out: Acanthamoeba castellanii EC50 ± SD
Quantity Name: EC50 (µM)
Numbers only, in µM.

Ask | I would be grateful if you could share the reported EC50 for "Nc1c(-c2ccccn2)nc2cc(F)ccn12" .
Reply | 6.94

----------
assay: Rat skeletal muscle cell line (L6) cytotoxicity assay (resazurin); conditions: rat, L6 cells (rat skeletal muscle cell line)
Task for the reader: assign each of the following molecules its reported CC50 at 72 h.

Some solved cases for reference:
* FC1(F)CCN(c2nc(Nc3ccsc3)nc3[nH]cnc23)CC1 | > 50 µM
* Cn1nc2c3c(cc(-c4ccnc(N)n4)cc31)Oc1ccccc1N2 | > 50 µM

Please find the next molecule below.
Ask | I would be grateful if you could share the reported CC50 at 72 h for "CCOc1cc(-c2ccnc(N)n2)cc2c1c(N)nn2C" .
Reply | > 17 µM
